# study-system: pre-existing anti-drug antibodies (ADA) present in human sera
# assay-summary: ELISA pre-existing ADA binding assay, confirmatory setup, test molecule coated, 20 human sera
Attribute: No of positive serum samples above 30% CCP (serum samples)
Answer as a number with no unit attached.

Examples from the recorded data:
binder	endpoint-result
PRO2920 (scFv) scFv: DIQMTQSPSSLSASVGDRVTITCQASESIYSSLAWYQQKPGKAPKLLIYLASTLASGVPSRFSGSGSGTDFTLTISSLQPEDFATYYCQSTDYTTSTHRNSFGTGTKVTVLGGGGGSGGGGSGGGGSGGGGSEVQLVESGGGRVQPGGSLRLSCAASGFSFSTTYYMCWVRQAPGKGLEWIGCTNTASSVRTYYATWAKGRFTISRDNSKNTVYLQMNSLRAEDTAVYYCARDMGFADYALNLWGQGTQVTVSS	2
PRO2909 (scFv) scFv: DIQMTQSPASLSASVGDRVTITCQASQSIGTYLAWYQQKPGKPPKLLIYRAFILASGVPSRFSGSGSGTDFTLTISSLQPEDFATYYCQSNFYSDSTTIGPNAFGTGTKVTVLGGGGGSGGGGSGGGGSGGGGSEVQLVESGGGLVQPGGSLRLSCAASGFSFNSDYWIYWVRQAPGKGLEWIASIYGGSSGNTQYASWAQGRFTISRDNSKNTVYLQMNSLRAEDTAVYFCARGYVDYGGATDLWGQGTQVTVSS	10
PRO2903 (scFv) scFv: DIQMTQSPASLSASVGDRVTITCQASQSIGTYLAWYQQKPGKPPKLLIYRAFILASGVPSRFSGSGSGTDFTLTISSLQPEDFATYYCQSNFYSDSTTIGPNAFGTGTKVTVLGGGGGSGGGGSGGGGSGGGGSEVQLVESGGGRVQPGGSLRLSCAASGFSFNSDYWIYWVRQAPGKGLEWIASIYGGSSGNTQYASWAQGRFTISRDNSKNTVYLQMNSLRAEDTATYFCARGYVDYGGATDLWGQGTQVTVSS	6
PRO2990 (scFv) scFv: DIQMTQSPSSLSASVGDRVTITCQASESIYSSLAWYQQKPGKAPKLLIYLASTLASGVPSRFSGSGSGTDFTLTISSLQPEDFATYYCQSTDYTTSTHRNSFGTGTKVTVLGGGGGSGGGGSGGGGSGGGGSEVQLVESGGGSVQPGGSLRLSCAASGFSFSTTYYMCWVRQAPGKGLEWIGCTNTASSVRTYYATWAKGRFTISRDNSKNTVYLQMNSLRAEDTATYYCARDMGFADYALNLWGQGTTVTVSS	5

Input line: Which No of positive serum samples above 30% CCP (serum samples) is listed for PRO2924 (scFv) scFv: DIQMTQSPSSLSASVGDRVTITCQASESIYSSLAWYQQKPGKAPKLLIYLASTLASGVPSRFSGSGSGTDFTLTISSLQPEDFATYYCQSTDYTTSTHRNSFGTGTKVTVLGGGGGSGGGGSGGGGSGGGGSEVQLVESGGGLVQPGGSLRLSCAASGFSFSTTYYMCWVRQAPGKGLEWIGCTNTASSVRTYYATWAKGRFTISRDNSKNTVYLQMNSLRAEDTAVYYCARDMGFADYALNLWGQGTQVTVSS ?
Output line: 15

Input line: Thanks! And PRO2926 (scFv) scFv: DIQMTQSPASLSASVGDRVTITCQASQSIGTYLAWYQQKPGKPPKLLIYRAFILASGVPSRFSGSGSGTDFTLTISSLQPEDFATYYCQSNFYSDSTTIGPNAFGTGTKVTVLGGGGGSGGGGSGGGGSGGGGSEVQLVESGGGSVQPGGSLRLSCAASGFSFNSDYWIYWVRQAPGKGLEWIASIYGGSSGNTQYASWAQGRFTISRDNSKNTVYLQMNSLRAEDTATYFCARGYVDYGGATDLWGQGTQVTVSS ?
Output line: 8

Input line: How about this binder: PRO2905 (scFv) scFv: DIQMTQSPASLSASVGDRVTITCQASQSIGTYLAWYQQKPGKPPKLLIYRAFILASGVPSRFSGSGSGTDFTLTISSLQPEDFATYYCQSNFYSDSTTIGPNAFGTGTKVTVLGGGGGSGGGGSGGGGSGGGGSEVQLVESGGGRVQPGGSLRLSCAASGFSFNSDYWIYWVRQAPGKGLEWIASIYGGSSGNTQYASWAQGRFTISRDNSKNTVYLQMNSLRAEDTAVYFCARGYVDYGGATDLWGQGTQVTVSS
Output line: 7
